Target: human TRPM8 receptor (Homo sapiens, UniProt Q7Z2W7)
Construct: expressed in transfected cells; host or cells: HEK293, stably transfected, tetracycline-inducible expression
Sequence (Q7Z2W7 whole entry): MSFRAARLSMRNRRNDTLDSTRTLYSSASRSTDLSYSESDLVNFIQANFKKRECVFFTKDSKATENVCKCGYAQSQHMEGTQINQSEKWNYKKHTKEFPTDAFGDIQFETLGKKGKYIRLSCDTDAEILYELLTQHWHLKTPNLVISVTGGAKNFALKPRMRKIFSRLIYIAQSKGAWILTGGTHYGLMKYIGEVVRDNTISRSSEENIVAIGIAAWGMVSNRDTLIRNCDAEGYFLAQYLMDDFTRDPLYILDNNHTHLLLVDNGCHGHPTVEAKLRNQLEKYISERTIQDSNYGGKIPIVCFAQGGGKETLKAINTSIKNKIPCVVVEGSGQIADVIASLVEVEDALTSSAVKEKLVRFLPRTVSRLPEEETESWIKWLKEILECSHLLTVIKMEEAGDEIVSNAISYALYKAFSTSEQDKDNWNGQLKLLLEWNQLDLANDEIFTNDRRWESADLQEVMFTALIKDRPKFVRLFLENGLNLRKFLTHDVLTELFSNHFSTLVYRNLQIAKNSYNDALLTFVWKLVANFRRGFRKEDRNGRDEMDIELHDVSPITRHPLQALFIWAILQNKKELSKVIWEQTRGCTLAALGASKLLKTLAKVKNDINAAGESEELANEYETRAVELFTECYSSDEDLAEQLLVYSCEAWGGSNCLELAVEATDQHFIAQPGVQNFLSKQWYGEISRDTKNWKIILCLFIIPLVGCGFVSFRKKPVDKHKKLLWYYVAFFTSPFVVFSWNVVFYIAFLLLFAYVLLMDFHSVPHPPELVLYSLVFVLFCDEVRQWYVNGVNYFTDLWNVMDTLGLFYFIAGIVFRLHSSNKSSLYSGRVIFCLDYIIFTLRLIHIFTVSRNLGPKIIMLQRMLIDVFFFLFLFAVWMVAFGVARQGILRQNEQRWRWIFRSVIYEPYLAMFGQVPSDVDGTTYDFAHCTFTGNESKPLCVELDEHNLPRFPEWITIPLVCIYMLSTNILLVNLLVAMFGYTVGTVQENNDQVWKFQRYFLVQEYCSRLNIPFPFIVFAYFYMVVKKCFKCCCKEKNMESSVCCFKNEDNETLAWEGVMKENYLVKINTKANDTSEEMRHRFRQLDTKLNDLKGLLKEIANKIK
Assay: Assay on TRPM8 modulators: Ca2+-sensitive dye (Fluo-4) fluorescence in HEK293-TRPM8 test cells
Assay type: cell-based
Settings: TRPM8 EC50, Table 7; HEK293-TRPM8 cells
Procedure: The starting point for cloning the human TRPM8 receptor is an LnCaP cDNA bank. […] A test similar to the test already described in the literature by Behrendt H. J. et al, Br. J. Pharmacol. 141, 2004, 737-745, is performed. The agonization or antagonization of the receptor can be quantified using a Ca^2+-sensitive dye (e.g. FURA, Fluo-4 etc.). […] The activity of the active substances in relation to activation of the TRPM8 channel is determined using the assay described. […]
observedProperty: EC50 (nM)
# value in nM; strip the unit string

API: value(readout=EC50, system=human TRPM8 receptor (Homo sapiens, UniProt Q7Z2W7)) for record CNC(=O)C(C)Sc1nnc2c3ccccc3c3ccccc3c2n1 (stereo not shown) [Compound B-07]
920

---

Target: human TRPM8 receptor (Homo sapiens)
Construct: expressed in transfected cells; host or cells: HEK293, stably transfected, tetracycline-inducible expression
Assay: Assay on TRPM8 modulators: Ca2+-sensitive dye (Fluo-4) fluorescence in HEK293-TRPM8 test cells
Format: cell-based
Design: concentration or dose not given beside the values
Settings: HEK293 cells recombinantly expressing human TRPM8
# relative TRPM8 activation annotations
The reply should be a number in %, with the unit left off.

As a guide, the following entries are already answered.
• CNC(=O)C(C)Sc1nc(-c2ccc(OC)cc2)c(-c2ccc(OC)cc2)o1 (stereo not drawn) = −2
• OCCSc1nnc(-c2ccccc2)c(-c2ccccc2)n1 = 5
• CNC(=O)CCc1nc(-c2ccc(C)cc2)c(-c2ccc(C)cc2)o1 = 23
• CCC(=O)C(C)Sc1nc(-c2ccccc2)c(-c2ccccc2)o1 (stereo not drawn) = 2

Entry CCSc1nc(-c2ccccc2)c(-c2ccccc2)o1 has what relative TRPM8 activation?
1

I would be grateful if you could share the reported relative TRPM8 activation for c1ccc(-c2nnc(NCCC3CC3)nc2-c2ccccc2)cc1 .
3

I have this compound here, CC(=O)NCCc1nc(-c2ccccc2)c(-c2ccccc2)o1 , and I need its recorded relative TRPM8 activation.
56

Entry CNC(=O)CSc1nc(-c2ccc(C)cc2)c(-c2ccc(C)cc2)o1 has what relative TRPM8 activation?
−2

Reported relative TRPM8 activation, compound CC(Sc1nc(-c2ccccc2)c(-c2ccccc2)o1)C(=O)NC(C)(C)C (stereo not drawn) : ____
21

---

relative TRPM8 activation listing for selected compounds.
Biological target: human TRPM8 receptor (Homo sapiens)
Construct: expressed in transfected cells; host or cells: HEK293, stably transfected, tetracycline-inducible expression
Assay: Assay on TRPM8 modulators: Ca2+-sensitive dye (Fluo-4) fluorescence in HEK293-TRPM8 test cells
Format: cell-based
Design: concentration or dose not given beside the values
Conditions: HEK293 cells recombinantly expressing human TRPM8
Procedure: The starting point for cloning the human TRPM8 receptor is an LnCaP cDNA bank. […] A test similar to the test already described in the literature by Behrendt H. J. et al, Br. J. Pharmacol. 141, 2004, 737-745, is performed. The agonization or antagonization of the receptor can be quantified using a Ca^2+-sensitive dye (e.g. FURA, Fluo-4 etc.). […] The activity of the active substances in relation to activation of the TRPM8 channel is determined using the assay described. […]
Supply the numeric figure in %, leaving out any unit text.

- CNC(=O)CCCc1nc(-c2ccccc2)c(-c2ccccc2)o1: 12
- CCCCSc1nnc(-c2ccccc2)c(-c2ccccc2)n1: 40

Query (compound): NC(=O)Nc1nnc(-c2ccccc2)c(-c2ccccc2)n1 ; field requested: relative TRPM8 activation
2

Form field: reported relative TRPM8 activation of CC(Sc1nnc(-c2ccccc2)c(-c2ccccc2)n1)C(=O)NC1CCCC1 (centres unmarked)
87

---

Molecular target: human TRPM8 receptor (Homo sapiens, UniProt Q7Z2W7)
Construct: expressed in transfected cells; host or cells: HEK293, stably transfected, tetracycline-inducible expression
Assay: Assay on TRPM8 modulators: Ca2+-sensitive dye (Fluo-4) fluorescence in HEK293-TRPM8 test cells
Format: cell-based
Design: concentration or dose not given beside the values
Conditions: HEK293 cells recombinantly expressing human TRPM8
observedProperty: relative TRPM8 activation (%)
Report only the number, with the unit % understood.

Examples with their reported relative TRPM8 activation follow.
• OCCNc1nnc(-c2ccccc2)c(-c2ccccc2)n1 [Compound B-58] = 1
• CC(Sc1nnc(-c2ccccc2)c(-c2ccccc2)n1)C(=O)O (stereo not shown) [Compound B-44] = 5
• O=C(CSc1cnc(-c2ccccc2)c(-c2ccccc2)n1)NC1CC1 [Compound B-24] = 68

Give the measured relative TRPM8 activation of COC(=O)C(C)Nc1nnc(-c2ccccc2)c(-c2ccccc2)n1 (stereo not shown) [Compound B-63] .
−2

---

Molecular target: human TRPM8 receptor (Homo sapiens)
Construct: expressed in transfected cells; host or cells: HEK293, stably transfected, tetracycline-inducible expression
Assay: Assay on TRPM8 modulators: Ca2+-sensitive dye (Fluo-4) fluorescence in HEK293-TRPM8 test cells
Type: cell-based
Conditions: Table 7; HEK293-TRPM8 cells; read-out: TRPM8 EC50
observedProperty: pEC50
By convention, pEC50 is the negative base-10 log of a molar concentration.

• O=C(CSc1nnc(-c2ccccc2)c(-c2ccccc2)n1)N1CCC1 [Compound B-06] = 6.55

// query pEC50 value for entry CNC(=O)CSc1cnc(-c2ccccc2)c(-c2ccccc2)n1 [Compound B-04]
6.43

pEC50 lookup needed for CCC(Sc1nnc(-c2ccccc2)c(-c2ccccc2)n1)C(=O)NC (stereo not drawn) [Compound B-03] , thanks.
7.15

---

Target: human TRPM8 receptor (Homo sapiens, UniProt Q7Z2W7)
Construct: expressed in transfected cells; host or cells: HEK293, stably transfected, tetracycline-inducible expression
Assay: Assay on TRPM8 modulators: Ca2+-sensitive dye (Fluo-4) fluorescence in HEK293-TRPM8 test cells
Assay type: cell-based
Conditions: Table 6; HEK293-TRPM8 cells; read-out: TRPM8 EC50
Each record is given True if its reported EC50 is strictly below 7 µM. Records at or above 7 µM are given False.

• CC(=O)NCCc1nc(-c2ccccc2)c(-c2ccccc2)o1 = False
• CN(C(=O)CSc1nc(-c2ccccc2)c(-c2ccccc2)o1)C1CC1 = False
• CNC(=O)CCc1nc(-c2ccccc2)c(-c2ccccc2)o1 = True
• CNC(=O)C(C)Sc1nc(-c2ccccc2)c(-c2ccccc2)o1 (stereo not shown) [Compound A-03] = True
• CNC(=O)C(C)Sc1nc(-c2ccccc2)c(-c2ccccc2)o1 (stereo not shown) [Compound A-01] = True

Continue with the next compound.
Please determine if CNC(=O)[C@H]1C[C@H]1c1nc(-c2ccccc2)c(-c2ccccc2)o1 (racemic) is below 7 µM in terms of EC50.
True

---

Overview of recorded pEC50 for various molecules
Target: human TRPM8 receptor (Homo sapiens, UniProt Q7Z2W7)
Construct: expressed in transfected cells; host or cells: HEK293, stably transfected, tetracycline-inducible expression
Experiment: Assay on TRPM8 modulators: Ca2+-sensitive dye (Fluo-4) fluorescence in HEK293-TRPM8 test cells
Type: cell-based
Conditions: Table 8; HEK293-TRPM8 cells; read-out: TRPM8 EC50
In simple prose, pEC50 is minus the logarithm base ten of a concentration in moles per litre.

• CNC(=O)C(C)Sc1nc(-c2ccccc2)c(-c2ccccc2)o1 (stereo not shown) [Compound A-01] = 8.00

Attention now turns to another entry.
Endpoint output: pEC50 of CNC(=O)[C@H]1C[C@H]1c1nc(-c2ccccc2)c(-c2ccccc2)o1 (racemic) [Compound A-04] . Value?
6.22

---

Molecular target: human TRPM8 receptor (Homo sapiens, UniProt Q7Z2W7)
Construct: expressed in transfected cells; host or cells: HEK293, stably transfected, tetracycline-inducible expression
Test: Assay on TRPM8 modulators: Ca2+-sensitive dye (Fluo-4) fluorescence in HEK293-TRPM8 test cells
Format: cell-based
Design: concentration or dose not given beside the values
Details: HEK293 cells recombinantly expressing human TRPM8
Recorded relative TRPM8 activation, one value per entry.
// return numeric value only (unit: %, not printed)

Need relative TRPM8 activation, item CSCC(=O)N1CCCCC1c1nc(-c2ccccc2)c(-c2ccccc2)o1 (stereo not drawn)
70

Find the recorded relative TRPM8 activation belonging to COCC(C)NC(=O)CSc1nc(-c2ccccc2)c(-c2ccccc2)o1 (stereo not drawn) and report it.
−2

Entry O=C(CCc1nc(-c2ccccc2)c(-c2ccccc2)o1)NC1CC1 [Compound A-22] has what relative TRPM8 activation?
69

Which value of relative TRPM8 activation has been reported for CN(C)CCSc1nnc(-c2ccccc2)c(-c2ccccc2)n1 in the records?
20

I would be grateful if you could share the reported relative TRPM8 activation for CNC(=O)/C=C/c1nc(-c2ccccc2)c(-c2ccccc2)o1 .
13

What measured relative TRPM8 activation goes with O=C(CSc1ncco1)NC1CC1 ?
−1

State the recorded relative TRPM8 activation for this entry: CC(C)CNC(=O)C(C)Sc1nc(-c2ccccc2)c(-c2ccccc2)o1 (stereo not drawn)
7

Please look up its relative TRPM8 activation: COCCNC(=O)CSc1nc(-c2ccccc2)c(-c2ccccc2)o1
1

Look up relative TRPM8 activation for this molecule: CC(Sc1nnc(-c2ccccc2)c(-c2ccccc2)n1)C(=O)NCC1CCCO1 (stereo not drawn)
37

Recorded relative TRPM8 activation of CNC(=O)C(C)Oc1nnc(-c2ccccc2)c(-c2ccccc2)n1 (stereo not drawn) , please.
2

Any idea what relative TRPM8 activation was measured for O=C(CCc1nc(-c2ccccc2)c(-c2ccccc2)o1)C1CC1 ?
24

Form field: reported relative TRPM8 activation of CCC(=O)CCc1nc(-c2ccccc2)c(-c2ccccc2)o1
5

Requested read-out: relative TRPM8 activation. Entry: c1ccc(CSc2nc(-c3ccccc3)c(-c3ccccc3)o2)cc1
1

What relative TRPM8 activation value was documented for this molecule, CNCCc1nc(-c2ccccc2)c(-c2ccccc2)o1.Cl ?
0

Returns the measured relative TRPM8 activation for the input molecule. Input: c1ccc(CSc2nnc(-c3ccccc3)c(-c3ccccc3)n2)cc1
3

Could you share which relative TRPM8 activation value was measured for CCC(=O)Nc1nnc(-c2ccccc2)c(-c2ccccc2)n1 ?
4

The values you see were collected from patent US20250163006A1.
